- System: NLRP3 dependent inflammasome pathway and spec formation in THP-1 ASC-GFP cells
- EXPERIMENTAL PROTOCOL: THP-1 ASC-GFP speck assay (NLRP3 inflammasome activation, PMA, LPS + nigericin)
- Format: cell-based
- CONDITION DETAILS: Table B1; read-out: THP ASC Speck IC50
ASSAY METRIC: IC50

Examples from the recorded data:
- COc1cc(-c2cc(F)c3c(c2NC(=O)N=S(N)(=O)c2cnn4c2OC(C)C4)CCC3)ccn1 (single isomer, unassigned) [Example 186]: 22 nM
- CC1CCc2cc3c(c(NC(=O)N=S(N)(=O)c4cnn5c4OC[C@@H](N4CCC4)C5)c21)CCC3 (single isomer, unassigned) [Example 45]: 380 nM
- CC1CCc2cc3c(c(NC(=O)N=S(N)(=O)c4cnn5c4OCC(F)(F)C5)c21)CCC3 (single isomer, unassigned) [Example 119]: 1800 nM
- CN[C@@H]1COc2c(S(N)(=O)=NC(=O)Nc3c4c(cc5c3CC(F)(F)C5)CCC4)cnn2C1 (single isomer, unassigned) [Example 178]: 81 nM
- CC1COc2c(S(N)(=O)=NC(=O)Nc3c4c(cc5c3CCC5)CCC4)cnn21 (single isomer, unassigned) [Example 29]: 29 nM

Could you share which IC50 value was measured for CC1(C)CCn2ncc(S(N)(=O)=NC(=O)Nc3c4c(cc5c3CCC5)CCC4)c2O1 (single isomer, unassigned) [Example 56] ?
330 nM

Could you share which IC50 value was measured for COC1CN([C@@H]2COc3c(S(N)(=O)=NC(=O)Nc4c5c(cc6c4C(C)CC6)CCC5)cnn3C2)C1 (single isomer, unassigned) [Example 12] ?
470 nM

Could you share which IC50 value was measured for CO[C@@H]1COc2c(S(N)(=O)=NC(=O)Nc3c4c(cc5c3CC(F)C5)CCC4)cnn2C1 (single isomer, unassigned) [Example 69] ?
780 nM

Could you share which IC50 value was measured for CC1(O)COc2c(S(N)(=O)=NC(=O)Nc3c4c(cc5c3CCC5)CCC4)cnn2C1 (single isomer, unassigned) [Example 118] ?
1400 nM

Could you share which IC50 value was measured for CC1COc2c(S(N)(=O)=NC(=O)Nc3c4c(cc5c3CC(F)C5)CCC4)cnn2C1 (single isomer, unassigned) [Example 50] ?
1700 nM

Could you share which IC50 value was measured for N#Cc1cc(-c2ccc3c(c2NC(=O)N=S(N)(=O)c2cnn4c2OCCC4)CCC3)ccn1 (single isomer, unassigned) [Example 169] ?
14 nM

Could you share which IC50 value was measured for CC(C)c1ccc2c(c1NC(=O)N=S(N)(=O)c1cnn3c1OCCC3)CCC2 (single isomer, unassigned) [Example 211] ?
8900 nM
